Recorded measurements of IC50, one per entry
measurement_target: Melanocortin receptor 4 (Homo sapiens, UniProt P32245)
Sequence (P32245 whole entry): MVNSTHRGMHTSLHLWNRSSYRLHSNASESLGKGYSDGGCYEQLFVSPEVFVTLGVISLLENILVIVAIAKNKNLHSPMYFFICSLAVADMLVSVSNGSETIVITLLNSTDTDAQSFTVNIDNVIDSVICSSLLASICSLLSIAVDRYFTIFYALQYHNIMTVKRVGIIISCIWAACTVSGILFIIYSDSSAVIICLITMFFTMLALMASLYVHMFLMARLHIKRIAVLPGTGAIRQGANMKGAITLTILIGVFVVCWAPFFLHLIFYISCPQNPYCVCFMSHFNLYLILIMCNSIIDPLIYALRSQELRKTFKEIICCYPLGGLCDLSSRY
method_notes: Displacement of [125I]Nle4-D-Phe7-alpha-MSH from human MC4 receptor expressed in COS1 cells
Please provide the amount together with its unit, number first.

Worked examples follow.
compound: CC(C)N1CCN(C(CN2CCN(CCCCc3c(O)ccc4ccccc34)CC2)c2ccc(F)cc2)CC1 (racemic)
measurement_target: Melanocortin receptor 4 (Homo sapiens, UniProt P32245)
result: 0.131 µM

compound: CC(C)N1CCN(C(CN2CCN(CCCCc3ccccc3-c3ccccc3)CC2)c2ccc(F)cc2)CC1 (racemic)
measurement_target: Melanocortin receptor 4 (Homo sapiens, UniProt P32245)
result: 0.0651 µM

Now let's try a different one.
Recorded result, CC(C)N1CCN(C(CN2CCN(CCCc3cccc(-c4ccccc4)c3)CC2)c2ccc(F)cc2)CC1 (racemic) , IC50: 0.156 µM
